Consider the following compounds; for each one, report its EC50.
Test system: PKC mediated IL-2 production
Experiment: IL-2 ELISA, human primary T cell, anti CD3+CD28+
Type: cell-based
Settings: Homo sapiens, T-cell, 24 h, human primary T cells stimulated with αCD3 and αCD28, 24 hours

Observed EC50, PKC mediated IL-2 production, CC1(COc2ccc(Nc3ncc(F)c(N[C@@H]4C[C@@H]5CCCN5C(C)(C)C4)n3)cc2C#N)COC1 [Compound 173] : 0.1 to 0.5 µM

Note to self: EC50 of Cn1nnn(-c2cc(Nc3ncc(F)c(N[C@@H]4C[C@@H]5CCCN5C(C)(C)C4)n3)c(F)cc2OC2CC(OCc3ccccc3)C2)c1=O (stereo partly shown) [Compound 225] with PKC mediated IL-2 production was 0.1 to 0.5 µM

// compound CC1(C)Oc2cc(Nc3ncc(F)c(N[C@@H]4C[C@@H]5CCCN5C(C)(C)C4)n3)ccc2N(CC2CC2)C1=O [Compound 105] , assay PKC mediated IL-2 production, EC50 value: 0.5 to 1 µM

Lab entry: PKC mediated IL-2 production assay, compound CC1(C)CC[C@H]2C[C@@H](Nc3nc(Nc4ccc(OC5CC(O)C5)c(Cl)c4)ncc3F)CCN21 (stereo partly shown) [Compound 312] , EC50 = 0.1 to 0.5 µM

Record CC1(C)C[C@H](Nc2nc(Nc3ccc4c(c3)-n3nnnc3C(CO)(CO)O4)ncc2F)C[C@@H]2CCCN21 [Compound 125] ; system PKC mediated IL-2 production; EC50 = 1 to 10 µM

Bench note, PKC mediated IL-2 production: entry CC1(C)C[C@H](Nc2nc(Nc3cc(S(F)(F)(F)(F)F)ccc3F)ncc2F)C[C@@H]2CCCN21 [Compound 71] , its EC50 = 0.5 to 1 µM

Measured on PKC mediated IL-2 production, Cn1nnn(-c2cc(Nc3ncc(F)c(N[C@@H]4C[C@@H]5CCCN5C(C)(C)C4)n3)c(F)cc2OCC2COC2)c1=O [Compound 166] has a documented EC50 of 0.1 to 0.5 µM

---

System: PKC mediated IL-2 production
Experiment: IL-2 ELISA, human primary T cell, anti CD3+CD28+
Assay type: cell-based
Conditions: Homo sapiens, T-cell, 24 h, human primary T cells stimulated with αCD3 and αCD28, 24 hours
For each entry below, report its EC50 value.

The measured EC50 associated with `CN(C)CCOc1cc(F)c(Nc2ncc(F)c(N[C@@H]3C[C@@H]4CCCN4C(C)(C)C3)n2)cc1-n1nnn(C)c1=O` reads 100 to 500 nM

get_value(item= `CC1(C)C[C@H](Nc2nc(Nc3ccc(N4CC5(COC5)C4)c(C#N)c3)ncc2F)C[C@@H]2CCCN21` , readout=EC50) returns 100 to 500 nM

Query `CC1(C)Oc2ccc(Nc3ncc(F)c(N[C@@H]4C[C@@H]5CCCN5C(C)(C)C4)n3)cc2O1` yields EC50 of 1000 to 10000 nM

For reference, reported EC50 for `Cc1ccc(Nc2ncc(F)c(N[C@@H]3C[C@@H]4CCCN4C(C)(C)C3)n2)cc1-n1nnnc1SCCO` stands at < 100 nM

---

Give measured pEC50 for each item. Keep answers brief.
Tested on: PKC mediated IL-2 production
Assay: IL-2 ELISA, human primary T cell, anti CD3+CD28+
Format: cell-based
Details: Homo sapiens, T-cell, 24 h, human primary T cells stimulated with αCD3 and αCD28, 24 hours
pEC50: −log10 of the molar value.

In plain terms, Cc1nnnn1-c1cc(Nc2ncc(F)c(NC3CC(C)(C)N4CCCC4C3C)n2)ccc1F (stereo not shown) has a documented pEC50 of 5.00 to 6.00

Please fill in: pEC50 reported for Cn1nnn(-c2cc(Nc3ncc(F)c(NC4CCN5CCCC5C4)n3)c(F)cc2C2CC2)c1=O (racemic) = 5.00 to 6.00

pEC50 recorded for this compound, `Cn1nnn(-c2cc(Nc3ncc(F)c(N[C@H]4C[C@@H]5C[C@@H](F)CN5C(C)(C)C4)n3)c(F)cc2C2CC2)c1=O` , is 5.00 to 6.00

Lab note: measured pEC50 of CC1C(Nc2nc(Nc3cc(-n4nnn(C)c4=O)c(C4CC4)cc3F)ncc2F)CC(C)(C)N2CCCC12 (stereo not shown) was 6.00 to 6.30

pEC50 measured on CC1(C)C[C@H](Nc2nc(Nc3ccc(NCC(CCl)C(N)=O)c(C(F)(F)F)c3)ncc2F)C[C@@H]2CCCN21 (stereo partly shown) = 6.00 to 6.30

// sample `CC1(C)Oc2ccc(Nc3ncc(F)c(N[C@H]4C[C@H]5CCCN5C(C)(C)C4)n3)cc2-n2nnnc21` , its pEC50 was 6.30 to 7.00

Record `Cn1nnn(-c2cc(Nc3ncc(F)c(N[C@@H]4C[C@@H]5CCCN5C(C)(C)C4)n3)c(F)cc2CCCO)c1=O` . Reported pEC50: 6.30 to 7.00

The compound listed as Cn1nnn(-c2cc(Nc3ncc(F)c(NC4CC5CCCN5C(C)(C)C4)n3)ccc2OC2COC2)c1=O (stereo not shown) [Compound 40] has a reported pEC50 of > 7.00

So, `COCC1(COC)Oc2ccc(Nc3ncc(F)c(N[C@@H]4C[C@@H]5CCCN5C(C)(C)C4)n3)cc2-n2c1nn(C)c2=O` ? Its pEC50 was 6.00 to 6.30

// `CC1(C)C[C@H](Nc2nc(Nc3ccc(OCC4(CO)COC4)c(-n4cnnn4)c3)ncc2F)C[C@@H]2CCCN21` : pEC50 value = 6.00 to 6.30

pEC50 recorded for this compound, `COCCOc1ccc(Nc2ncc(F)c(N[C@@H]3C[C@@H]4CCCN4C(C)(C)C3)n2)cc1C#N` , is 6.30 to 7.00

Documented pEC50 of Cn1nnn(-c2cc(Nc3ncc(C#N)c(N[C@@H]4C[C@@H]5CCCN5C(C)(C)C4)n3)c(F)cc2OC2CCOC2)c1=O (stereo partly shown) : 6.30 to 7.00

For reference, reported pEC50 for `COc1cc(Nc2ncc(Cl)c(N[C@@H]3C[C@@H]4CCCN4C(C)(C)C3)n2)cc(OC)c1OC` stands at 5.00 to 6.00

---

Would you kindly list pEC50 for each of these molecules?
System: PKC mediated IL-2 production
Test: IL-2 ELISA, human primary T cell, anti CD3+CD28+
Assay type: cell-based
Conditions: human primary T cells stimulated with αCD3 and αCD28, 24 hours
pEC50: −log10 of the molar value. Counter-ions that a name gives are not always drawn.

Entry COc1cc(Nc2ncc(F)c(N[C@@H]3C[C@@H]4CCCN4C(C)(C)C3)n2)cc(-n2nnnc2C)c1 (single isomer, unassigned) , pEC50 reported as > 7.00

For this molecule ( CC1(C)CC(Nc2nc(Nc3ccc(O[C@@H]4CCOC4)c(C#N)c3)ncc2F)CC2CCCN21 (single isomer, unassigned) [Compound 58] ), measured pEC50 is 5.00 to 6.00

Lab note: measured pEC50 of Cn1nc2n(c1=O)-c1cc(Nc3ncc(F)c(N[C@@H]4C[C@@H]5CCCN5C(C)(C)C4)n3)ccc1OCC2(C)O (single isomer, unassigned) [Compound 294] was 6.00 to 6.30

Entry Cn1nc2n(c1=O)-c1cc(Nc3ncc(F)c(N[C@@H]4C[C@@H]5CCCN5C(C)(C)C4)n3)ccc1OCC2(C)O (stereo partly drawn) [Compound 295] ; pEC50 = 6.00 to 6.30

The reported pEC50 of the molecule CC(C)N1CCC(Oc2ccc(Nc3ncc(F)c(N[C@H]4C[C@H]5CCCN5C(C)(C)C4)n3)cc2OC(F)F)CC1 (single isomer, unassigned) was 5.00 to 6.00

Entry CC1(C)CC(Nc2nc(Nc3ccc(O[C@H]4CCOC4)c(C#N)c3)ncc2F)CC2CCCN21 (single isomer, unassigned) [Compound 61] — recorded pEC50 = 6.00 to 6.30

Entry Cc1ncc(Nc2ncc(F)c(NC3CC4CCCN4C(C)(C)C3)n2)cc1-n1nnnc1C (stereo not drawn) , pEC50 reported as 6.30 to 7.00

The measured pEC50 associated with Cn1nnn(-c2cc(Nc3ncc(F)c(N[C@H]4C[C@@H]5CCC(=O)N5C(C)(C)C4)n3)c(F)cc2C2CC2)c1=O [Compound 33, formate] reads 5.00 to 6.00

For reference, reported pEC50 for Cn1nnn(-c2cc(Nc3ncc(F)c(N[C@H]4CCN5[C@@H](CCC5(C)C)C4)n3)c(F)cc2C2CC2)c1=O (single isomer, unassigned) stands at 5.00 to 6.00

Measured pEC50, Cn1nnn(-c2cc(Nc3ncc(F)c(N[C@@H]4CCN5C(CCC5(C)C)C4)n3)c(F)cc2C2CC2)c1=O (mixture of isomers) : 5.00 to 6.00

// COc1cc(Nc2ncc(F)c(N[C@H]3C[C@@H]4CCCN4C(C)(C)C3)n2)cc(-n2nnnc2C)c1 (single isomer, unassigned) : pEC50 value = > 7.00

The measured pEC50 associated with `[2H]C([2H])(O)C([2H])([2H])Oc1ccc(Nc2ncc(F)c(N[C@@H]3C[C@@H]4CCCN4C(C)(C)C3)n2)cc1C#N` reads 6.30 to 7.00
